Several reports have described pKi for UniProtKB O00519; a selection of those results is presented here.
Sequence (O00519 whole entry): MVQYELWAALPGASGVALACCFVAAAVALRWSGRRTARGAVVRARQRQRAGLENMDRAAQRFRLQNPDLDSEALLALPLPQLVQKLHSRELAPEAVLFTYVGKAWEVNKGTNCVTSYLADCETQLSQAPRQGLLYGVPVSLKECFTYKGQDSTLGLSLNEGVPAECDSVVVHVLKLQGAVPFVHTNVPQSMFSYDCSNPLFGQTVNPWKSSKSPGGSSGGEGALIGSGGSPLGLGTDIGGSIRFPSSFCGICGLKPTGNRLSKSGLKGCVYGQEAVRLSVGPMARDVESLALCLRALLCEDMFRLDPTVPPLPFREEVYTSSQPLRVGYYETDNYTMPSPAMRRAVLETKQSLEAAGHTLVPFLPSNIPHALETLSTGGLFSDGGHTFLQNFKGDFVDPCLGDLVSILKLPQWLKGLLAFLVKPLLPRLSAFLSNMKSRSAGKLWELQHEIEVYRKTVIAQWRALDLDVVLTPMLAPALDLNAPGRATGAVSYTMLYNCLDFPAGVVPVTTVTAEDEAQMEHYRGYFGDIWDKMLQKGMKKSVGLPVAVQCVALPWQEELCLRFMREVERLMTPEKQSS
pKi: −log10 of the molar value.

// sample BrC1=NOC2(CCN(CCCc3ccccc3)CC2)C1 , its pKi was ≥ 7.00

// sample CC(Cn1ccc2cc(B(O)O)ccc2c1=O)c1ccccc1 (stereo not drawn) , its pKi was 7.00 to 8.00

// sample COC(=O)c1cc(OC2=NOC(c3ccc(OC(F)(F)F)cc3)C2)ccn1 (racemic) , its pKi was ≥ 7.00

// sample CC1(c2ccc(OC(F)(F)F)cc2)CC(Oc2ccc(C(=O)O)nc2)=NO1 (racemic) , its pKi was ≥ 7.00

// sample Cc1nnc(-c2cc(F)cc(OC3=NOC(c4ccc(OC(F)(F)F)cc4)C3)c2)o1 (racemic) , its pKi was ≥ 7.00

// sample Clc1ccc([C@H]2CC(Oc3cncnc3)=NO2)cc1 (racemic) , its pKi was 6.00 to 7.00

###

Several reports have described pKi for UniProt O00519; a selection of those results is presented here.
pKi: −log10 of the molar value.

O=C(OCc1ccccc1)N1CCC2(CC1)CC(Oc1cccnc1)=NO2 :: ≥ 7.00
CC(C)CS(=O)(=O)c1ccc(OC2=NOC(c3ccc(OC(F)(F)F)cc3)C2)cn1 (racemic) :: 6.00 to 7.00
BrC1=NO[C@H](c2ccc(-c3ccccc3)s2)C1 :: ≥ 7.00
O=c1[nH]c(CCc2ccccc2)nc2ccc(B(O)O)cc12 :: 6.00 to 7.00

Bench note, UniProt O00519: CNS(=O)(=O)c1ccc([C@H]2CC(Br)=NO2)cc1 (racemic) , pKi reads ≥ 7.00

###

pKi: −log10 of the molar value.
Several reports have described pKi for Fatty-acid amide hydrolase 1 (Homo sapiens); a selection of those results is presented here.

O=c1c2cc(B(O)O)ccc2ccn1CCc1ccccc1 :: 7.00 to 8.00
FC(F)(F)Oc1ccc(C2CC(Oc3cncnc3)=NO2)cc1Cl (racemic) :: ≥ 7.00

Bench note, Fatty-acid amide hydrolase 1 (Homo sapiens): BrC1=NO[C@@H](c2ccc(Br)cc2)C1 (racemic) , pKi reads ≥ 7.00

Bench note, Fatty-acid amide hydrolase 1 (Homo sapiens): Clc1cccc(C2CC(Br)=NO2)c1 (single isomer, unassigned) , pKi reads 6.00 to 7.00

Bench note, Fatty-acid amide hydrolase 1 (Homo sapiens): CS(=O)(=O)c1ccc(OC2=NOC3(CCN(C(=O)c4ccccc4)CC3)C2)cn1 , pKi reads 6.00 to 7.00

Bench note, Fatty-acid amide hydrolase 1 (Homo sapiens): Cc1ccc(OC2=NOC(c3ccc(Oc4ccccc4)cc3)C2)cn1 (single isomer, unassigned) , pKi reads ≥ 7.00

Bench note, Fatty-acid amide hydrolase 1 (Homo sapiens): BrC1=NO[C@@H](c2ccncc2)C1 , pKi reads ≤ 6.00

Bench note, Fatty-acid amide hydrolase 1 (Homo sapiens): COc1ccc(CN2CCC3(CC2)CC(Br)=NO3)cc1 , pKi reads ≥ 7.00

Bench note, Fatty-acid amide hydrolase 1 (Homo sapiens): BrC1=NO[C@H](c2csc(-c3ccccc3)n2)C1 , pKi reads ≤ 6.00

Bench note, Fatty-acid amide hydrolase 1 (Homo sapiens): CC(=O)Nc1ccc(OC2=NOC(c3ccc(Oc4ccccc4)cc3)C2)cn1 (racemic) , pKi reads ≥ 7.00

###

Several reports have described Ki for Fatty-acid amide hydrolase 1 (Homo sapiens, UniProt O00519); a selection of those results is presented here.

BrC1=NO[C@]2(CC[C@H](c3ccccc3)CC2)C1 :: ≤ 0.1 µM
BrC1=NO[C@@H](c2cc(-c3ccccc3)cs2)C1 :: ≤ 0.1 µM

Now let's try a different one.
// sample CC1(c2ccc(OC(F)(F)F)cc2)CC(Oc2ccc(-c3ncco3)nc2)=NO1 (racemic) , its Ki was ≤ 0.1 µM
